Taken from patent US10149911B2.

- Protocol Details: Solubility test in 10% CD or CD derivative solution
- Assay type: physicochemical
- Condition Set: 10% HPβCD solution, aqueous with cosolvent or surfactant or cyclodextrin, thermodynamic from solid, 10% HP β CD solution, room temperature
Measured Endpoint: solubility at 24 h (mg/mL)
Provide the reading as a plain figure in mg/mL.

(Q) Consider the compound shown here: CNC(=O)[C@@](C)(C(=O)NO)N(C)C(=O)c1ccc(C#Cc2ccc([C@H](O)CO)cc2)cc1 [Compound A monohydrate] What is its recorded solubility at 24 h?
(A) 11.6

* * *

- Protocol Details: Solubility test in 10% CD or CD derivative solution
- Format: physicochemical
- Condition Set: 10% αCD solution, aqueous with cosolvent or surfactant or cyclodextrin, thermodynamic from solid, 10% α CD solution, room temperature
Measured Endpoint: solubility at 24 h (mg/mL)
Provide the reading as a plain figure in mg/mL.

(Q) Consider the molecule shown here: CNC(=O)[C@@](C)(C(=O)NO)N(C)C(=O)c1ccc(C#Cc2ccc([C@H](O)CO)cc2)cc1 [Compound A monohydrate] What is its recorded solubility at 24 h?
(A) 30.2

* * *

- Protocol Details: Solubility test in 10% CD or CD derivative solution
- Assay type: physicochemical
- Condition Set: aqueous with cosolvent or surfactant or cyclodextrin, thermodynamic from solid, 10% 6-O-α-maltosyl-β-cyclodextrin solution, room temperature
Measured Endpoint: solubility at 24 h (µg/mL)
Provide the reading as a plain figure in µg/mL.

(Q) Consider the molecule shown here: CNC(=O)[C@@](C)(C(=O)NO)N(C)C(=O)c1ccc(C#Cc2ccc([C@H](O)CO)cc2)cc1 [Compound A monohydrate] What is its recorded solubility at 24 h?
(A) 10000

* * *

- Protocol Details: Solubility test in 10% CD or CD derivative solution
- Type: physicochemical
- Condition Set: aqueous with cosolvent or surfactant or cyclodextrin, thermodynamic from solid, 10% Hydroxyethyl-β-cyclodextrin solution, room temperature
Measured Endpoint: solubility at 24 h (mg/mL)
Provide the reading as a plain figure in mg/mL.

(Q) Consider the compound shown here: CNC(=O)[C@@](C)(C(=O)NO)N(C)C(=O)c1ccc(C#Cc2ccc([C@H](O)CO)cc2)cc1 [Compound A monohydrate] What is its recorded solubility at 24 h?
(A) 11.9

* * *

- Protocol Details: Solubility test in 10% CD or CD derivative solution
- Assay type: physicochemical
- Condition Set: 10% βCD solution, aqueous with cosolvent or surfactant or cyclodextrin, thermodynamic from solid, 10% β CD solution, room temperature
Measured Endpoint: solubility at 24 h (µg/mL)
Provide the reading as a plain figure in µg/mL.

(Q) Consider the compound shown here: CNC(=O)[C@@](C)(C(=O)NO)N(C)C(=O)c1ccc(C#Cc2ccc([C@H](O)CO)cc2)cc1 [Compound A monohydrate] What is its recorded solubility at 24 h?
(A) 5900

* * *

- Protocol Details: Solubility test in 10% CD or CD derivative solution
- Type: physicochemical
- Condition Set: 10% SBEβCD solution, aqueous with cosolvent or surfactant or cyclodextrin, thermodynamic from solid, 10% SBE β CD solution, room temperature
- Procedure: To 5 mL of a 10% CD or CD derivative solution, about 100 mg of Compound A monohydrate was added, and stirred at room temperature for 24 hours. To the solutions in which αCD, HPαCD, DMβCD and methyl-β-cyclodextrin were used, about 100 mg of Compound A monohydrate was added after 6 hours. After centrifugation (3000 rpm, 10 minutes), the supernatant was filtered with a filter, and the solubility was measured by the HPLC method.
Measured Endpoint: solubility at 24 h (µg/mL)
Provide the reading as a plain figure in µg/mL.

(Q) Consider the compound shown here: CNC(=O)[C@@](C)(C(=O)NO)N(C)C(=O)c1ccc(C#Cc2ccc([C@H](O)CO)cc2)cc1 [Compound A monohydrate] What is its recorded solubility at 24 h?
(A) 8900
